- Test system: PCSK9 mRNA
- method_summary: Dose-dependent antisense inhibition of PCSK9 in Hep3B cells, EC50 (Table 76)
- Assay type: cell-based, human
- conditions: 80 nM
Strand notation (5' to 3'): a small letter for the sugar, then the base; units joined by * are phosphorothioate-linked, units joined directly phosphodiester-linked; [ ] holds rarer units or linkages, { } end groups; capitals alone tell only the bases. e = 2'-O-(2-methoxyethyl) (MOE); [5mC] = 5-methylcytosine; d = 2'-deoxy (DNA)
Recorded % Inhibition by entry

{"columns": ["substance", "unit_descriptor", "% Inhibition"],
 "data": [
  ["400352 (antisense e[5mC]*eA*d[5mC]*d[5mC]*d[5mC]*dT*d[5mC]*dA*d[5mC]*d[5mC]*d[5mC]*d[5mC]*e[5mC]*eA) [compound 400352]", "%", 63],
  ["400330 (antisense e[5mC]*e[5mC]*dA*d[5mC]*dG*dT*dG*dG*dG*d[5mC]*dA*dG*e[5mC]*eA) [compound 400330]", "%", 82],
  ["400307 (antisense e[5mC]*eG*dG*d[5mC]*d[5mC]*dG*d[5mC]*dT*dG*dA*d[5mC]*d[5mC]*eA*e[5mC]) [compound 400307]", "%", 92],
  ["400309 (antisense e[5mC]*e[5mC]*d[5mC]*dG*dG*d[5mC]*d[5mC]*dG*d[5mC]*dT*dG*dA*e[5mC]*e[5mC]) [compound 400309]", "%", 72],
  ["400327 (antisense eG*eT*d[5mC]*d[5mC]*d[5mC]*d[5mC]*dA*dA*dA*dG*dT*d[5mC]*e[5mC]*e[5mC]) [compound 400327]", "%", 43],
  ["400353 (antisense eA*e[5mC]*dA*d[5mC]*d[5mC]*d[5mC]*dT*d[5mC]*dA*d[5mC]*d[5mC]*d[5mC]*e[5mC]*e[5mC]) [compound 400353]", "%", 54],
  ["400331 (antisense eG*e[5mC]*d[5mC]*dA*d[5mC]*dG*dT*dG*dG*dG*d[5mC]*dA*eG*e[5mC]) [compound 400331]", "%", 75],
  ["400308 (antisense e[5mC]*e[5mC]*dG*dG*d[5mC]*d[5mC]*dG*d[5mC]*dT*dG*dA*d[5mC]*e[5mC]*eA) [compound 400308]", "%", 77]
]}

---

Recorded % Inhibition by entry
- Test system: PTP1B mRNA
- method_summary: Dose response for human PTP1B in HuVEC cells, PPS 198 and PPS 3000 (Tables 86, 87)
- Type: cell-based
- conditions: PPS 198, 10.0 nM
- Description: Human vascular endothelial (HuVEC) cells were plated at a density of 5000 cells per well and treated as described herein with nM concentrations of short antisense compound as indicated in Table 86. After the treatment period, RNA was isolated from the cells and PTP1B mRNA levels were measured by quantitative real-time PCR, as described herein. PTP1B mRNA levels were adjusted according to total RNA content as measured by RIBOGREEN®. […]
Strand notation (5' to 3'): a small letter for the sugar, then the base; units joined by * are phosphorothioate-linked, units joined directly phosphodiester-linked; [ ] holds rarer units or linkages, { } end groups; capitals alone tell only the bases. e = 2'-O-(2-methoxyethyl) (MOE); [5mC] = 5-methylcytosine; d = 2'-deoxy (DNA)

{"columns": ["substance", "% Inhibition [%]"],
 "data": [
  ["399173 (eA*eT*dG*d[5mC]*dT*dA*dG*dT*dG*d[5mC]*dA*d[5mC]*eT*eA; antisense) [compound 399173]", 63],
  ["398173 (e[5mC]*dA*dG*d[5mC]*d[5mC]*dT*dG*dG*dG*d[5mC]*dA*e[5mC]) [compound 398173]", 80],
  ["398120 (eG*eT*dT*d[5mC]*dA*dA*dG*d[5mC]*dG*dG*d[5mC]*d[5mC]*eT*eA) [compound 398120]", 80],
  ["398105 (eT*eG*d[5mC]*dA*d[5mC]*dA*dG*dG*d[5mC]*dA*dG*dG*eT*eT) [compound 398105]", 79],
  ["399315 (antisense eG*eG*d[5mC]*dA*dA*d[5mC]*dT*dT*d[5mC]*dA*dA*d[5mC]*e[5mC]*eT) [compound 399315]", 68],
  ["399132 (eG*eG*dG*d[5mC]*dT*dG*dA*dG*dT*dG*dA*d[5mC]*e[5mC]*e[5mC]; antisense) [compound 399132]", 75],
  ["399301 (GTGTGCACACAGCT; all C 5-methyl, all phosphorothioate, sugars by position not given here; further chemistry not fully specified) [compound 399301]", 91]
]}
